assay-target: human PLK1 (Homo sapiens)
Construct: A full-length human PLK1 (XM—047240) (amino acids 1-603) clone; His6 (N); made in house; host or cells: Sf9 insect cells (baculovirus) for PLK1; E. coli BL21(DE3) RIL for CDC25C
Sequence (P53350 whole entry, the tested form may be a part): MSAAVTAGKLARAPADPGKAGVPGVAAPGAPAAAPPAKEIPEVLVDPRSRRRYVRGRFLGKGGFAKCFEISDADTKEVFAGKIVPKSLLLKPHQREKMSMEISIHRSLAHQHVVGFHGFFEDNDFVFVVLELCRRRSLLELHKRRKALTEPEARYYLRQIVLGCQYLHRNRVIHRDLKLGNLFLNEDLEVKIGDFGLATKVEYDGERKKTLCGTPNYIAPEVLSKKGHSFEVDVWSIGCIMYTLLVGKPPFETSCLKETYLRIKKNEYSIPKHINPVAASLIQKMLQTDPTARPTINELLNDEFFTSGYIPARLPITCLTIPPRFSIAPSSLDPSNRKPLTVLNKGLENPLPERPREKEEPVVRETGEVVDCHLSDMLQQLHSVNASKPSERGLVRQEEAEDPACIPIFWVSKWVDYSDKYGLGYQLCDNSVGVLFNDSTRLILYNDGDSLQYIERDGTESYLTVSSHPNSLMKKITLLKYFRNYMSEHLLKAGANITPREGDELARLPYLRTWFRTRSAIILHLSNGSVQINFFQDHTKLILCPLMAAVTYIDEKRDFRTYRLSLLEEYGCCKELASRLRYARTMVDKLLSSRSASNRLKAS
test-name: PLK1 protein kinase assay (CDC25C phosphorylation, [γ-32P]-ATP)
Format: biochemical
experimental-setup: kinase assay at 10 μM ATP; read-out: PLK1 kinase inhibition IC50
Protocol: A full-length human CDC25C clone was isolated by PCR from HeLa mRNA and was inserted on a BamHI-HindIII fragment into pRsetA. […] A full-length human PLK1 (XM—047240) (amino acids 1-603) clone was amplified from a foetal lung cDNA library using primers incorporating restriction enzyme sites. […] On harvest, cell density and viability was determined, the cultures spun down at 2500 r.p.m. for 5 min and washed with ice-cold phosphate-buffered saline. […]

molecule: NC(=O)c1sc2c([N+](=O)[O-])cc(F)cc2[n+]1[O-] [Compound 1f]
IC50: 50 to 100 µM
